target: Adenosine receptor A2a (Homo sapiens, UniProt P29274); test: Displacement of [3H]ZM 241385 from human adenosine A2A receptor expressed in CHO cells at <=5000 nM after 60 mins by scintillation spectrometry; type: cell-based
Sequence (P29274 whole entry): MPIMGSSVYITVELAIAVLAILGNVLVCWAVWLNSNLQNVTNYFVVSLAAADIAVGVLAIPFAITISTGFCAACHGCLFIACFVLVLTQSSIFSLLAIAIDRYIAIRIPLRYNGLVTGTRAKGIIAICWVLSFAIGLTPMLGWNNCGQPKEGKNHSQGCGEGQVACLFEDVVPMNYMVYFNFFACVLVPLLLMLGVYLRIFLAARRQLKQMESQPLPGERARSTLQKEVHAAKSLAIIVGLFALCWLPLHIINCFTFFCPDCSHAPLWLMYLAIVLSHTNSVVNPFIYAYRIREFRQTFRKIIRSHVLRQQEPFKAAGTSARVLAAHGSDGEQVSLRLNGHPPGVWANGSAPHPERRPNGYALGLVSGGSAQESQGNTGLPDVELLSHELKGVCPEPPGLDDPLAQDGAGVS
ASSAY ENDPOINT: inhibition (%)
Numbers only here, please. The scale is %.

{"columns": ["MOLECULE", "MEASURED TARGET", "inhibition [%]"],
 "data": [
  ["C=CCN1C(=O)N2CC(CC)N=C2c2[nH]c(-c3cc(C)n(C)n3)nc21 (racemic)", "Adenosine receptor A2a (Homo sapiens, UniProt P29274)", 1],
  ["C=CCN1C(=O)N2CC(C)N=C2c2[nH]c(-c3cc(OC)no3)nc21 (racemic)", "Adenosine receptor A2a (Homo sapiens, UniProt P29274)", 11]
]}

Shift focus to the following entry.
In one line, give reported inhibition of the entry Cc1cc(-c2nc3c([nH]2)C2=NC(C)CN2C(=O)N3Cc2ccccc2)n(C)n1 (racemic) .
1

Reference source for all entries: ChEMBL document CHEMBL1799944
